Values were extracted from paper PMC10747088.

biological target: human serum albumin (HSA) (Homo sapiens, UniProt P02768 25-609); assay: fluorescence titration (FAM); PBS; 10 uM oligomer; HSA Kd: 10 uM oligomer, PBS, 30 min, 25 C (Methods) or 37 C (Figure S7); HSA EMSA: TA/TAM buffer, 1 h, native 8% PAAG at 37 C; Ku/PARP1 EMSA: 50 mM Tris-HCl pH; conditions: protein: commercial; label: 5'-FAM; single strand; micelles
Sequence (P02768 25-609): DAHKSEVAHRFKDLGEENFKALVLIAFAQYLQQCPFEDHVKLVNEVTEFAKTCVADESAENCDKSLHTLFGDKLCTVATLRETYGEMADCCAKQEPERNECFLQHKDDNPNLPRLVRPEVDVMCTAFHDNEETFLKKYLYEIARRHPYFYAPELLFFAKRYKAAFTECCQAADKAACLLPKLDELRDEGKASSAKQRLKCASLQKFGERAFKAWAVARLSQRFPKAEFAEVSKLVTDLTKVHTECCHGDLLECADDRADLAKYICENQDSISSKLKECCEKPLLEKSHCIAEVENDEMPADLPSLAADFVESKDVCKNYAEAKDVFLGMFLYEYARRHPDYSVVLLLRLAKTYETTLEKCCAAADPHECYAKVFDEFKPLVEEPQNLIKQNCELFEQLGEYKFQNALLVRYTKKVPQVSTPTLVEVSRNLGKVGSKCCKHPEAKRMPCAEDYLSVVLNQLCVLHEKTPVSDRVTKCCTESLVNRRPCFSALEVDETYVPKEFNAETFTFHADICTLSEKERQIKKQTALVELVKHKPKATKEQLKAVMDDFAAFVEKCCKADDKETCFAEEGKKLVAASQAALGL
Outcome Measure: Kd (nM)
Answers are plain numbers, in nM.

Query: What Kd value was documented for this binder, CTGACTATGAAGTATT (ssDNA, triazinyl phosphoramidate with two dodecyl groups at the last internucleotide phosphate (T15*T16)) [FAM-TZD16 (FAM-TZ16)] ?
Reply: 1500
